molecular target: human GCG receptor (human, UniProt P47871 26-477); assay: cell-based or functional assay
Sequence (P47871 26-477): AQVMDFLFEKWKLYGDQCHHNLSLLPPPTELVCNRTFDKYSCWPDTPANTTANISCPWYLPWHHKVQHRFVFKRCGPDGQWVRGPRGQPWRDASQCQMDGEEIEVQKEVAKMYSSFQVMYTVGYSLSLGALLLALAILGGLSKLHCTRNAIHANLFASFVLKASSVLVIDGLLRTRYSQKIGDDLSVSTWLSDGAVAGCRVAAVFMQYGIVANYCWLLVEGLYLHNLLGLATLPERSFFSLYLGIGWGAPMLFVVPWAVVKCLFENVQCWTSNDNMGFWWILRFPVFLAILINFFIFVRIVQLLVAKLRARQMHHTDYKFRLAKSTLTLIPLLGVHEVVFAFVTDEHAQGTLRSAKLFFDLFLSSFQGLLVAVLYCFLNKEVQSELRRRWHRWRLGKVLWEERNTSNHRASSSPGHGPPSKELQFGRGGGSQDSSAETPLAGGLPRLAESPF
Bridge positions count the residues as written; N and C are the ends. Square brackets hold non-standard residues; d marks the D form. Ends that are not written are not given here. * marks the point of attachment. Acetyl(2-(4-imidazolyl)) = O=C(Cc1c[nH]cn1)*; Aib = CC(C)(N)C(=O)O
# reported In vitro activity (%) compared with native peptide, vs Glucagon; entries follow
Quick note: give the figure in %, leave out the unit.

[
  {
    "binder": "H[Aib]QGTFTSDYSKYLDGQHAQCFVAWLLAGGGPSSGAPPPS [triple agonist of SEQ ID NO: 39]",
    "test_result": 0.53
  },
  {
    "binder": "H[Aib]QGTFTSDYSKYLDEKACKDFVQWLLDGGPSSGAPPPS (bridge 16-20; not fully specified) [triple agonist of SEQ ID NO: 32]",
    "test_result": 1.7
  },
  {
    "binder": "{Acetyl(2-(4-imidazolyl))}-[Aib]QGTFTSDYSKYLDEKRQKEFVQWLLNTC (bridge 15-19; numbers in words are those of the source; also: ring between positions 16 and 20, type not given here) [triple agonist of SEQ ID NO: 81]",
    "test_result": 0.3
  }
]

Which In vitro activity (%) compared with native peptide, vs Glucagon is reported for this binder? H[Aib]QGTFTSDCSKYLDSRAAQDFVQWLLDGGPSSGAPPPS (not fully specified) [triple agonist of SEQ ID NO: 26] 0.2

Which In vitro activity (%) compared with native peptide, vs Glucagon is reported for this binder? H[Aib]QGTFTSDYSKYLDEKAAKEFVQWLLNTC (bridge 16-20; not fully specified) [triple agonist of SEQ ID NO: 29] 6

Which In vitro activity (%) compared with native peptide, vs Glucagon is reported for this binder? Y[Aib]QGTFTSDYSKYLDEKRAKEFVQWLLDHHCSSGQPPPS (bridge 16-20) [triple agonist of SEQ ID NO: 43] 88.4

Which In vitro activity (%) compared with native peptide, vs Glucagon is reported for this binder? H[Aib]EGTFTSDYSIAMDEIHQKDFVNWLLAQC (bridge 16-20; not fully specified) [triple agonist of SEQ ID NO: 53] 8.4

Measured values drawn from patent US20230355720A1 for this set.
